# Test system: Fer (mouse);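 also: 11-residue human phosphosite peptides and single-mutation variants displayed on the E. coli surface, counted by deep sequencing, each peptide's frequency after selection divided by its frequency in the unselected input library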;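 also: frequency after pTyr selection over input frequency; kinase dosed for 20-30% of maximal phosphorylation in three min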
# method notes: phosphorylation enrichment, bacterial display (enrichment ratio); higher = better substrate or ligand; peptides without Tyr show the background
So basically: phosphorylation enrichment at 0.5 or higher? That is True. Lower than 0.5? That is False.

[[record]]
sequence = "SVTCTYYPALN [TP53_Y126_S127Y]"
class = "True"

[[record]]
sequence = "DQNVEYKGTVW [FHL1_Y117]"
class = "False"

[[record]]
sequence = "SEPDLYCDPRG [PKP1_Y160]"
class = "True"

[[record]]
sequence = "LARDMHDKEYY [MET_Y1230_Y1230H]"
class = "False"

[[record]]
sequence = "SARFPYLMAEK [LDHB_Y173_R172P]"
class = "False"

[[record]]
sequence = "GIFSGYDDAWD [POLR1C_Y36_N32I_YF]"
class = "False"

[[record]]
sequence = "WLFFRYLPIGC [ATP2A2_Y836_A838P]"
class = "True"

[[record]]
sequence = "LVMFTYAIFGM [SCN1A_Y1684_I1683T]"
class = "True"

[[record]]
sequence = "EWLRGYLENGK [HLA-C_Y195_R194G]"
class = "False"

[[record]]
sequence = "KLQKKYGPIFS [CYP17A1_Y60_YF]"
class = "False"

[[record]]
sequence = "SVVVPYEPHEV [TP53_Y220_P223H]"
class = "True"

[[record]]
sequence = "AHAGEYGAEAL [HBA1_Y25]"
class = "False"

[[record]]
sequence = "CENCHYPIVPL [LCK_Y25]"
class = "True"

